IC50 values recorded for human HIF-PHD2 (Homo sapiens)
readoutKind: IC50 (nM)

{"molecule": "Cc1ccc2cc(CCn3ncc4nc(-n5cc(C(=O)O)cn5)nc(O)c43)ccc2c1", "readoutKind": "IC50", "unitSpec": "nM", "measuredValue": 6.2}

I: CC(c1ccc(Cl)c(C(F)(F)F)c1)n1ncc2nc(-n3cc(C(=O)O)cn3)nc(O)c21 (centres unmarked)
II: O=C(O)c1cnn(-c2nc(O)c3c(cnn3C[C@H]3CCN(c4ccc(C(F)(F)F)cc4)C3)n2)c1
[ask] Problem: Given the entries I and II , determine which has the lower reported IC50. Give the label of your selection.
[reply] II
(II: 25 nM, I: 45 nM)

P: CC[C@@H](c1ccccc1)n1ncc2nc(-n3cc(C(=O)O)cn3)nc(O)c21
Q: O=C(O)c1cnn(-c2nc(O)c3c(cnn3C[C@H]3CC[C@H](Oc4cccc(F)c4)CC3)n2)c1
[ask] I would appreciate it if you could say which entry, P or Q , has the lower IC50 value. Choose, then provide that item's label.
[reply] Q
(Q: 10 nM, P: 44 nM)
